The measurements presented in this section are drawn from paper PMC6749236.

- Tested on: E. coli MG1655 (pSoxS-lux)
- assay.method.text: Prooxidant activity, bacterial lux-biosensor
- Assay type: cell-based, Escherichia coli
- conditions.used: 10^−7 M
- Excerpt: E. coli MG1655 (pRecA-lux) was used for the evaluation of the genotoxicity of the synthesized compounds. The biosensor with the PrecA promotor fixes the presence of the factors causing damage of DNA in a cell. […] The induction factor (I) was defined as the relation of luminescence intensity of a lux-biosensor suspension containing tested sample (Lc) to the luminescence intensity of a lux-biosensor control suspension (Lk): I = Lc/Lk. […]
measure: Prooxidant activity (induction factor)
API note: the answer field is a bare number with no unit suffix.

compound	Prooxidant activity (induction factor)
O=[N+]([O-])c1c(Cl)cc2c(no[n+]2[O-])c1Nc1cccc(O)c1 [compound 4]	1.74

Tell me the measured Prooxidant activity (induction factor) of O=C(Nc1ccc(Br)cc1)N1CCCC1c1ccc(Nc2c([N+](=O)[O-])c(Cl)cc3c2no[n+]3[O-])cc1O (centres unmarked) [6d] , please.
1.11

Looking for the measured Prooxidant activity (induction factor) of O=C(Nc1ccc(F)cc1)N1CCCC1c1ccc(Nc2c([N+](=O)[O-])c(Cl)cc3c2no[n+]3[O-])cc1O (centres unmarked) [6e] , can you help?
1.85

What measured Prooxidant activity (induction factor) goes with COc1ccc(NC(=O)N2CCCC2c2ccc(Nc3c([N+](=O)[O-])c(Cl)cc4c3no[n+]4[O-])cc2O)cc1 (centres unmarked) [6c] ?
1.68

Requested read-out: Prooxidant activity (induction factor). Entry: O=C(Nc1ccccc1)N1CCCC1c1ccc(Nc2c([N+](=O)[O-])c(Cl)cc3c2no[n+]3[O-])cc1O (centres unmarked) [6b]
1.04
